# System: Saccharomyces cerevisiae BY4741 SeMeCo community
# Test Details: z-score of subpopulation abundance vs DMSO median, subpopulation auxotrophic for HLM; higher = larger share of this subpopulation than in DMSO controls
# Condition Parameters: 10 µM; 24 h; SM minimal medium; subpopulation (auxotrophy): HLM
Classify by measured z-score of subpopulation abundance: criterion met if it is equal to or exceeds -0.4, criterion not met if it is smaller.

CC[C@H](C)C(=O)O[C@H]1C[C@@H](C)C=C2C=C[C@H](C)[C@H](CC[C@@H]3C[C@@H](O)CC(=O)O3)[C@H]21 [Lovastatin]
criterion met
O=C1CCc2ccc(OCCCCN3CCN(c4cccc(Cl)c4Cl)CC3)cc2N1 [Aripiprazole]
criterion met
Clc1ccc(C(Cn2ccnc2)OCc2csc3c(Cl)cccc23)c(Cl)c1 (centres undefined) [Sertaconazole nitrate]
criterion met
O=c1[nH]cc(F)c(=O)[nH]1 [Fluorouracil (5-Fluoracil, 5-FU)]
criterion met
OCc1ccccc1O[C@@H]1O[C@H](CO)[C@@H](O)[C@H](O)[C@H]1O [Salicin]
criterion not met

Prompt line: Textbook exercise: given the entry O=c1[nH]c(=O)n([C@H]2C[C@H](O)[C@@H](CO)O2)cc1I [Idoxuridine] , state whether its z-score of subpopulation abundance is greater than or equal to -0.4.
Response line: criterion not met

Prompt line: Textbook exercise: given the entry Clc1ccc(COC(Cn2ccnc2)c2ccc(Cl)cc2Cl)cc1 (centres undefined) [Econazole nitrate] , state whether its z-score of subpopulation abundance is greater than or equal to -0.4.
Response line: criterion met
